Please respond with reported IC50 for every item in the list.
# Subject Of Test: NS3 protease domain complexed to a modified form of the NS4A peptide (Pep4AK) (Hepatitis C virus genotype 1b, UniProt P26663)
# Construct: NS3 protease domain (residues 1027–1206 of the HCV polyprotein)
# Sequence (P26663 1027-1206, other chains not shown): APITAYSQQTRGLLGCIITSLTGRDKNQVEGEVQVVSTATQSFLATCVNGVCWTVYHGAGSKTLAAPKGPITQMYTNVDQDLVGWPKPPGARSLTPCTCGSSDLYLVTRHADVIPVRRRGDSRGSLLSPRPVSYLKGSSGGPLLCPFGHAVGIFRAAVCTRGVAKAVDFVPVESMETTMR
# Experiment Notes: HCV NS3 protease domain/NS4A cofactor peptide assay (Assay B)
# Type: biochemical
# Protocol Conditions: NS3 protease domain/NS4A cofactor peptide assay; read-out: Assay B (IC50 class)

// returns reported IC50 for input CC(C)C[C@H](NC(=O)C1(Cc2cccc(C(=O)O)c2)CCc2ccccc2N1)C(=O)N[C@@H](CC(F)F)C(=O)NCCc1ccc(C(=O)O)cc1Cl (single isomer, unassigned) [Compound 712b] < 10 µM

// returns reported IC50 for input CC(C)C[C@H](NC(=O)C1(Cc2ccc(C(=O)O)s2)CCc2ccccc2N1)C(=O)N[C@@H](CC(F)F)C(=O)NCCc1ccc(C(=O)O)cc1Cl (single isomer, unassigned) [Compound 711b] < 10 µM

// returns reported IC50 for input CC(C)C[C@H](NC(=O)C1Cc2ccccc2N1)C(=O)N[C@@H](CC(F)F)C(=O)NCCc1c(F)cc(C(=O)O)cc1F (stereo partly drawn) < 100 µM

---

# Subject Of Test: NS3 protease domain complexed to a modified form of the NS4A peptide (Pep4AK) (Hepatitis C virus genotype 1b, UniProt P26663)
# Construct: NS3 protease domain (residues 1027–1206 of the HCV polyprotein)
# Experiment Notes: HCV NS3 protease domain/NS4A cofactor peptide assay (Assay B)
# Assay type: biochemical
# Protocol Conditions: Table 1; NS3 protease domain/Pep4AK, 4AB peptide substrate; read-out: Assay B
pIC50: −log10 of the molar value.
Please respond with reported pIC50 for every item in the list.

// returns reported pIC50 for input CC(C)COC(=O)NC(CCC(=O)O)C(=O)NC(CC(C)C)C(=O)NC(CS)C(=O)NCCc1ccc(C(C)(C)C)cc1 (stereo not drawn) [Compound 148] > 4.00

// returns reported pIC50 for input CC(C)COC(=O)NC(CCC(=O)O)C(=O)NC(CC(C)C)C(=O)NC(CS)C(=O)NCCc1ccc(Br)cc1 (stereo not drawn) [Compound 139] > 4.00

// returns reported pIC50 for input CC(C)COC(=O)NC(CCC(=O)O)C(=O)NC(CC(C)C)C(=O)NC(CS)C(=O)NCCc1ccccc1C(F)(F)F (stereo not drawn) [Compound 121] > 4.00
